Could you please report measured scaled lipid accumulation score for the items listed next?
Tested on: primary human hepatic stellate cells (donor 1)
experimentSummary: scaled lipid accumulation score (0 = DMSO-like, 1 = nortriptyline-like); higher = stronger HSC inactivation (lipid re-accumulation), active = hit call of the paper
experimentalContext: library stock concentration: 10 mM; 48 h
Where a name gives a salt, the structure may show the parent alone. Out of some 5,800 compounds screened, about 620 (11%) showed activity. The entries come from a sample that favours actives as a whole.

[ask] I would be grateful if you could share the reported scaled lipid accumulation score for CN(C)C(=O)n1nnnc1Cc1ccc(-c2ccccc2)cc1 .
[reply] 0.554 (inactive)

[ask] Record request: scaled lipid accumulation score value, item COC(=O)C1=C(C)NC(C)=C(C(=O)OC)C1c1cccc(NC(=O)NCCCN2CCC(c3cccc(OC)c3)CC2)c1
[reply] 0.68 (inactive)

[ask] Look up scaled lipid accumulation score for this compound: Cc1cccc(Nc2nc(-c3ccncc3)cs2)c1
[reply] 1.24 (active)

[ask] For CC(=O)O[C@]1(C(C)=O)CC[C@H]2[C@@H]3C=C(C)C4=CC(=O)CC[C@]4(C)[C@H]3CC[C@@]21C [Megestrol acetate] , what is its reported scaled lipid accumulation score?
[reply] ≤ 0 (inactive)

[ask] Look up scaled lipid accumulation score: CC(=O)O[C@]1(C(C)=O)CC[C@H]2[C@@H]3C=C(C)C4=CC(=O)CC[C@]4(C)[C@H]3CC[C@@]21C
[reply] ≤ 0 (inactive)

[ask] For Cc1cc(/C(=C/Nc2ccc(Cl)cc2)C(=O)Nc2ccc(Cl)cc2)on1 , what is its reported scaled lipid accumulation score?
[reply] 0.332 (inactive)

[ask] Reported scaled lipid accumulation score, compound CC(=O)O[C@]1(C(C)=O)CCC2C3C=C(Cl)C4=CC(=O)CC[C@]4(C)C3CC[C@@]21C (stereo partly drawn) [Chlormadinone acetate] : ____
[reply] 0.968 (active)

[ask] # input compound: O=C1C=CC(=O)C2=C1C1c3ccccc3C2c2ccccc21 ; wanted: its scaled lipid accumulation score
[reply] 0.953 (active)

[ask] So what's the measured scaled lipid accumulation score for this one? CCCOc1ccc(Br)cc1-c1cc(-c2ccc(Cl)cc2)[nH]c1-c1ccncc1
[reply] 0.006 (inactive)

[ask] Look up scaled lipid accumulation score for this compound: O=C1N(c2ccccc2)c2ccccc2C1(Cc1ccncc1)Cc1ccncc1 [Linopirdine]
[reply] ≤ -0.051 (inactive)

[ask] Given the entry O=C1N(c2ccccc2)c2ccccc2C1(Cc1ccncc1)Cc1ccncc1 [Linopirdine dihydrochloride] , report its measured scaled lipid accumulation score.
[reply] ≤ -0.001 (inactive)

[ask] # query: scaled lipid accumulation score of entry COc1ccc(CCC(C)NC2CC(C)(C)NC(C)(C)C2)cc1 (stereo not drawn)
[reply] 0.998 (active)

[ask] Need scaled lipid accumulation score of CS(=O)(=O)c1ccc(Cn2c3c(c4cc(F)cc(F)c42)CCCC3CC(=O)O)cc1 (stereo not drawn) , thanks.
[reply] ≤ -0.006 (inactive)

[ask] Can you look up the measured scaled lipid accumulation score of COc1ccc(CNCc2cccc3ccccc23)cc1 for me?
[reply] 0.491 (inactive)

[ask] Find the recorded scaled lipid accumulation score belonging to Cc1ncc(CSSCc2cnc(C)c(O)c2CO)c(CO)c1O and report it.
[reply] ≤ 0 (inactive)

[ask] Which scaled lipid accumulation score value belongs to CN1CCC(c2c(O)cc(O)c3c(=O)cc(-c4ccccc4Cl)oc23)C1CO (stereo not drawn) ?
[reply] 0.002 (inactive)

[ask] Param item = COc1ccc(C2(CNC(=O)c3ccc(NC(=O)c4ccco4)cc3)CCOCC2)cc1 ; retrieve measured scaled lipid accumulation score.
[reply] ≤ 0 (inactive)

[ask] What value of measured scaled lipid accumulation score is listed for COc1cc(OC)c(C(=O)CCCCN2CCC3(CC2)NC(=O)NC3=O)cc1NS(=O)(=O)c1ccc(C(F)(F)F)cc1.Cl ?
[reply] 0.941 (active)

The reported measurements were obtained from the supplement of paper PMC9135407.
